- TARGET_OR_TEST_SYSTEM: JAK2 (Homo sapiens, UniProt O60674)
- Construct: 5 μl of catalytic domain recombinant Kinase enzyme+Tyr peptide substrate (Invitrogen, Calif.)
- Sequence (O60674 849-1124 limits assumed): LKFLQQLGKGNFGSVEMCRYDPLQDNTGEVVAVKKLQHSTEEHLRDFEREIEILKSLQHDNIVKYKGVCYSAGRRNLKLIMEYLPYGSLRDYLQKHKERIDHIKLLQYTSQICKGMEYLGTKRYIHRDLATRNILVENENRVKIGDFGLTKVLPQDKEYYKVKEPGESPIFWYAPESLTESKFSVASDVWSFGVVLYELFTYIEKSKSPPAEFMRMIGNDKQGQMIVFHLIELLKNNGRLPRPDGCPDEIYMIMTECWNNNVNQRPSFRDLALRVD
- EXPERIMENT_NOTES: Z'-LYTE kinase assay, JAK2 tyrosine phosphorylation activity

{"COMPOUND": "CC(=O)Nc1cccc(Nc2ncc(C(N)=O)c(Nc3cccc4nn(C)cc34)n2)c1", "TARGET_OR_TEST_SYSTEM": "JAK2 (Homo sapiens, UniProt O60674)", "IC50": "10 to 100 nM"}
{"COMPOUND": "CCNc1nc(Nc2cccc(NC(=O)N3CCCC3)c2)ncc1C(N)=O", "TARGET_OR_TEST_SYSTEM": "JAK2 (Homo sapiens, UniProt O60674)", "IC50": "10 to 100 nM"}
{"COMPOUND": "CC(=O)Nc1cc(Nc2ncc(C(N)=O)c(N[C@H](C)c3ccccc3)n2)ccc1Cl", "TARGET_OR_TEST_SYSTEM": "JAK2 (Homo sapiens, UniProt O60674)", "IC50": "10 to 100 nM"}
{"COMPOUND": "NC(=O)c1cnc(Nc2cccc(NC(=O)N3CCCC3)c2)cc1NCc1cccnc1", "TARGET_OR_TEST_SYSTEM": "JAK2 (Homo sapiens, UniProt O60674)", "IC50": "100 to 1000 nM"}
{"COMPOUND": "NC(=O)c1cnc(Nc2cccc(NC(=O)N3CCC[C@@H](O)C3)c2)nc1NCc1ccccc1", "TARGET_OR_TEST_SYSTEM": "JAK2 (Homo sapiens, UniProt O60674)", "IC50": "100 to 1000 nM"}
{"COMPOUND": "CC(=O)Nc1cccc(Nc2ncc(C(N)=O)c(NCC3CCNCC3)n2)c1", "TARGET_OR_TEST_SYSTEM": "JAK2 (Homo sapiens, UniProt O60674)", "IC50": "10 to 100 nM"}
{"COMPOUND": "CC(=O)Nc1cccc(Nc2ncc(C(N)=O)c(N[C@@H]3CCc4ccccc43)n2)c1", "TARGET_OR_TEST_SYSTEM": "JAK2 (Homo sapiens, UniProt O60674)", "IC50": "10 to 100 nM"}
{"COMPOUND": "CNC(=O)Nc1cc(Nc2ncc(C(N)=O)c(NCC3CC3)n2)ccc1Cl", "TARGET_OR_TEST_SYSTEM": "JAK2 (Homo sapiens, UniProt O60674)", "IC50": "10 to 100 nM"}
{"COMPOUND": "CC(=O)Nc1cccc(Nc2ncc(C(N)=O)c(NCC(C)C)n2)c1", "TARGET_OR_TEST_SYSTEM": "JAK2 (Homo sapiens, UniProt O60674)", "IC50": "10 to 100 nM"}
{"COMPOUND": "NC(=O)c1cnc(Nc2cccc(NC(=O)N3CCCC3)c2)cc1N[C@H](CO)c1ccccc1", "TARGET_OR_TEST_SYSTEM": "JAK2 (Homo sapiens, UniProt O60674)", "IC50": "100 to 1000 nM"}
{"COMPOUND": "CC(=O)Nc1cccc(Nc2cc(NCc3ccc4c(c3)OCO4)c(C(N)=O)cn2)c1", "TARGET_OR_TEST_SYSTEM": "JAK2 (Homo sapiens, UniProt O60674)", "IC50": "> 1000 nM"}
{"COMPOUND": "CC(=O)Nc1cccc(Nc2ncc(C(N)=O)c(NCC3CCCN(C(=O)OCc4ccccc4)C3)n2)c1 (centres unmarked)", "TARGET_OR_TEST_SYSTEM": "JAK2 (Homo sapiens, UniProt O60674)", "IC50": "100 to 1000 nM"}
{"COMPOUND": "NC(=O)c1cnc(Nc2cccc(NC(=O)C3CC3)c2)nc1NC1CCCC1", "TARGET_OR_TEST_SYSTEM": "JAK2 (Homo sapiens, UniProt O60674)", "IC50": "10 to 100 nM"}
{"COMPOUND": "C[C@@H](Nc1cc(Nc2cccc(NC(=O)N3CCCC3)c2)ncc1C(N)=O)c1ccccc1", "TARGET_OR_TEST_SYSTEM": "JAK2 (Homo sapiens, UniProt O60674)", "IC50": "100 to 1000 nM"}
{"COMPOUND": "CC(=O)Nc1cccc(Nc2cc(NCC3CC3)c(C(N)=O)cn2)c1", "TARGET_OR_TEST_SYSTEM": "JAK2 (Homo sapiens, UniProt O60674)", "IC50": "100 to 1000 nM"}
{"COMPOUND": "CC(=O)N(c1cccc(Nc2ncc(C(N)=O)c(N[C@H](C)c3ccccc3)n2)c1)C1CC1", "TARGET_OR_TEST_SYSTEM": "JAK2 (Homo sapiens, UniProt O60674)", "IC50": "10 to 100 nM"}
{"COMPOUND": "C[C@@H](Nc1nc(Nc2ccc(Cl)c(NC(N)=O)c2)ncc1C(N)=O)c1ccccc1", "TARGET_OR_TEST_SYSTEM": "JAK2 (Homo sapiens, UniProt O60674)", "IC50": "100 to 1000 nM"}

###

- TARGET_OR_TEST_SYSTEM: TYK2 (Homo sapiens, UniProt P29597)
- Construct: 5 μl of catalytic domain recombinant Kinase enzyme+Tyr peptide substrate (Invitrogen, Calif.)
- Sequence (P29597 897-1176 limits assumed): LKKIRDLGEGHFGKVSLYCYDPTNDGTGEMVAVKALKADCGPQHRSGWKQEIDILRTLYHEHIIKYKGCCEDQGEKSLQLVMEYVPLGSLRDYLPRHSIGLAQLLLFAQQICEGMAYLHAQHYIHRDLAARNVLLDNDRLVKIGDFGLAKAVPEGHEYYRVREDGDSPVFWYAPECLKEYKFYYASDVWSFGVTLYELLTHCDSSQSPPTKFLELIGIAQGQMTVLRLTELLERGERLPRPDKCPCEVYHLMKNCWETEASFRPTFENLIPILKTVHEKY
- EXPERIMENT_NOTES: Z'-LYTE kinase assay, TYK2 tyrosine phosphorylation activity
pIC50: −log10 of the molar value.
QUANTITY_MEASURED: pIC50

{"COMPOUND": "CC(=O)Nc1cccc(Nc2cc(NCCC(C)C)c(C(N)=O)cn2)c1", "TARGET_OR_TEST_SYSTEM": "TYK2 (Homo sapiens, UniProt P29597)", "TEST_VALUE": "7.00 to 8.00"}
{"COMPOUND": "NC(=O)c1cnc(Nc2ccc(Cl)c(NC(=O)N3CCCC3)c2)nc1NCc1cccc(F)c1", "TARGET_OR_TEST_SYSTEM": "TYK2 (Homo sapiens, UniProt P29597)", "TEST_VALUE": "6.00 to 7.00"}
{"COMPOUND": "CC(=O)Nc1cccc(Nc2ncc(C(N)=O)c(NCC(F)(F)F)n2)c1", "TARGET_OR_TEST_SYSTEM": "TYK2 (Homo sapiens, UniProt P29597)", "TEST_VALUE": "8.00 to 9.00"}
{"COMPOUND": "NC(=O)c1cnc(Nc2ccc(Cl)c(NC(=O)N3CCCC3)c2)nc1NC1CCCC1", "TARGET_OR_TEST_SYSTEM": "TYK2 (Homo sapiens, UniProt P29597)", "TEST_VALUE": "7.00 to 8.00"}
{"COMPOUND": "CC(=O)Nc1cccc(Nc2ncc(C(N)=O)c(NCC3CCN(C(=O)OC(C)(C)C)C3)n2)c1 (centres unmarked)", "TARGET_OR_TEST_SYSTEM": "TYK2 (Homo sapiens, UniProt P29597)", "TEST_VALUE": "6.00 to 7.00"}
{"COMPOUND": "COC(CNc1nc(Nc2cccc(NC(C)=O)c2)ncc1C(N)=O)c1ccccc1 (centres unmarked)", "TARGET_OR_TEST_SYSTEM": "TYK2 (Homo sapiens, UniProt P29597)", "TEST_VALUE": "7.00 to 8.00"}
{"COMPOUND": "CC(=O)Nc1cccc(Nc2ncc(C(N)=O)c(N[C@H](CO)c3ccccc3)n2)c1", "TARGET_OR_TEST_SYSTEM": "TYK2 (Homo sapiens, UniProt P29597)", "TEST_VALUE": "7.00 to 8.00"}
{"COMPOUND": "CNc1nc(Nc2cccc(NC(=O)N3CCCC3)c2)ncc1C(N)=O", "TARGET_OR_TEST_SYSTEM": "TYK2 (Homo sapiens, UniProt P29597)", "TEST_VALUE": "7.00 to 8.00"}
{"COMPOUND": "C[C@@H](Nc1nc(Nc2ccc(Cl)c(NC(=O)N3CCOCC3)c2)ncc1C(N)=O)c1ccccc1", "TARGET_OR_TEST_SYSTEM": "TYK2 (Homo sapiens, UniProt P29597)", "TEST_VALUE": "7.00 to 8.00"}
{"COMPOUND": "NC(=O)c1cnc(Nc2cccc(NC(=O)N3CCCC3)c2)cc1NCc1ccccc1", "TARGET_OR_TEST_SYSTEM": "TYK2 (Homo sapiens, UniProt P29597)", "TEST_VALUE": "7.00 to 8.00"}
{"COMPOUND": "COCC(=O)N(c1cccc(Nc2ncc(C(N)=O)c(NCc3ccccc3)n2)c1)C1CC1", "TARGET_OR_TEST_SYSTEM": "TYK2 (Homo sapiens, UniProt P29597)", "TEST_VALUE": "6.00 to 7.00"}
{"COMPOUND": "CC(=O)Nc1cccc(Nc2ncc(C(N)=O)c(N[C@H](CO)Cc3cnc[nH]3)n2)c1", "TARGET_OR_TEST_SYSTEM": "TYK2 (Homo sapiens, UniProt P29597)", "TEST_VALUE": "6.00 to 7.00"}
{"COMPOUND": "NC(=O)c1cnc(Nc2ccc(Cl)c(NC(=O)NC3CCC3)c2)nc1NCc1ccccc1", "TARGET_OR_TEST_SYSTEM": "TYK2 (Homo sapiens, UniProt P29597)", "TEST_VALUE": "6.00 to 7.00"}
{"COMPOUND": "NC(=O)c1cnc(Nc2cccc(NC(=O)N3CCC[C@@H](O)C3)c2)nc1NCc1ccccc1", "TARGET_OR_TEST_SYSTEM": "TYK2 (Homo sapiens, UniProt P29597)", "TEST_VALUE": "6.00 to 7.00"}
{"COMPOUND": "NC(=O)c1cnc(Nc2ccc(Cl)c(NC(=O)N3CCCCC3)c2)nc1NCc1ccccc1", "TARGET_OR_TEST_SYSTEM": "TYK2 (Homo sapiens, UniProt P29597)", "TEST_VALUE": "6.00 to 7.00"}
{"COMPOUND": "CC(=O)Nc1cccc(Nc2ncc(C(N)=O)c(N[C@H](C)C(C)C)n2)c1", "TARGET_OR_TEST_SYSTEM": "TYK2 (Homo sapiens, UniProt P29597)", "TEST_VALUE": "> 9.00"}
{"COMPOUND": "CC(=O)Nc1cc(Cl)cc(Nc2ncc(C(N)=O)c(NCc3cccc(F)c3)n2)c1", "TARGET_OR_TEST_SYSTEM": "TYK2 (Homo sapiens, UniProt P29597)", "TEST_VALUE": "7.00 to 8.00"}
